Kindly state Emax for each of the entries shown.
Molecular target: hCB1R (Homo sapiens, UniProt P21554)
Construct: expressed in transfected cells; host or cells: CHO-K1
Sequence (P21554 whole entry): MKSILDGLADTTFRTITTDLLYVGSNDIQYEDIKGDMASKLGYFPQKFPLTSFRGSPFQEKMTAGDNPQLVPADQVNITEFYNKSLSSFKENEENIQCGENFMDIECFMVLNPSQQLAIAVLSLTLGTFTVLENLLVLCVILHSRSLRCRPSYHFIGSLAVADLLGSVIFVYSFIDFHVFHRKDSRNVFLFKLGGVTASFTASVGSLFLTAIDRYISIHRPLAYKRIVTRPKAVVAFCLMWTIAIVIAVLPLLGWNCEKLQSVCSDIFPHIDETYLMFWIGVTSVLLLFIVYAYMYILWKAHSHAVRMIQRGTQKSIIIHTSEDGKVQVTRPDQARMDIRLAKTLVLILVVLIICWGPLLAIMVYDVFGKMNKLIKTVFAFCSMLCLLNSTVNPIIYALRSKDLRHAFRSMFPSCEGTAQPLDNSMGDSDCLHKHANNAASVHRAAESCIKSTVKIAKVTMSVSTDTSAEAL
Assay: cell-based
Type: cell-based
Details: read-out: CB1R βarrestin2 recruitment Emax

These recorded examples may help you get a feel for the data.
O=C(c1ccc(Cl)c2ccccc12)c1cn(CCCCCF)c2ccccc12 = 16%
CCCC(F)Cn1nc(C(=O)NC(C(N)=O)C(C)C)c2ccccc21 (stereo not drawn) [AB-PINACA N-(2-fluoropentyl) isomer] = 204%
CCCCCn1cc(C(=O)c2ccc(CCC)c3ccccc23)c2ccccc21 = 110%

# ---- query compound ----
query: Query (compound): CC(C)C(NC(=O)c1nn(Cc2ccccc2F)c2ccccc12)C(N)=O (stereo not shown) ; field requested: Emax
result: 280%

====

Target: hCB2R (Homo sapiens, UniProt P34972)
Construct: host or cells: CHO-K1 (PathHunter)
Sequence (P34972 whole entry): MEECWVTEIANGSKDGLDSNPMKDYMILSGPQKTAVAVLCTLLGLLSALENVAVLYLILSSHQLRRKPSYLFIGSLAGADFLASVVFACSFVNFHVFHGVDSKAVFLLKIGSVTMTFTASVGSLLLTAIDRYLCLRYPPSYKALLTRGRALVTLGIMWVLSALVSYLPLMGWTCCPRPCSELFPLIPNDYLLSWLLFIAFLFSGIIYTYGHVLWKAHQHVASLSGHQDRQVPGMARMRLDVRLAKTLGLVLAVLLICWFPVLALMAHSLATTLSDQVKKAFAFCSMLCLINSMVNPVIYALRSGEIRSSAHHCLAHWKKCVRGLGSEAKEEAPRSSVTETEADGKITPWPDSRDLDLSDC
Experiment: PathHunter βarrestin2 recruitment, CB2R
Type: cell-based
Property Measured: Emax (%)
Answers are plain numbers, in %.

Look at each molecule and report its Emax.
1. COC(=O)[C@@H](NC(=O)c1nn(CCCCF)c2ccccc12)C(C)(C)C
2. CCC(Cl)CCn1nc(C(=O)NC(C(N)=O)C(C)C)c2ccccc21 (stereo not shown)
3. CCCCCn1cc(C(=O)c2ccc(CCC)c3ccccc23)c2ccccc21
4. CCCC(F)Cn1nc(C(=O)NC(C(N)=O)C(C)C)c2ccccc21 (stereo not drawn) [AB-PINACA N-(2-fluoropentyl) isomer]
5. O=C(Nc1cccc2ccccc12)c1cn(Cc2ccc(F)cc2)c2ccccc12

result:
130
130
13
140
25

====

Target: hCB2R (Homo sapiens)
Construct: host or cells: CHO-K1 (PathHunter)
Test: HitHunter inhibition of FSK-stimulated cAMP, CB2R
Assay type: cell-based
Property Measured: Emax (%)
Numbers only, in %.

These recorded examples may help you get a feel for the data.
O=C(Oc1cccc2cccnc12)c1nn(CCCCCF)c2ccccc12 [5-fluoro NPB-22] = 110
CCCCCn1c2ccccc2c2cc(C(=O)c3cccc4ccccc34)ccc21 [EG 018] = 85
N#CCCCCn1cc(C(=O)c2cccc3ccccc23)c2ccccc21 [AM 2232] = 86
COC(=O)[C@@H](NC(=O)c1nn(CCCCF)c2ccccc12)C(C)(C)C [4-fluoro MDMB-BINACA] = 95
CC(C)CCn1cc(C(=O)c2ccc3ccccc3c2)c2ccccc21 [JWH 018 2'-naphthyl-N-(3-methylbutyl) isomer] = 110
CCCC(F)Cn1nc(C(=O)NC(C(N)=O)C(C)C)c2ccccc21 (stereo not drawn) [AB-PINACA N-(2-fluoropentyl) isomer] = 91
CCC(Cl)CCn1nc(C(=O)NC(C(N)=O)C(C)C)c2ccccc21 (stereo not drawn) [3-chloro AB-PINACA] = 87
O=C(c1ccc(Cl)c2ccccc12)c1cn(CCCCCF)c2ccccc12 [Cl 2201] = 110
COC(=O)[C@H](Cc1ccccc1)NC(=O)c1cn(CCCCCF)c2ccccc12 [5-fluoro MPP-PICA] = 110
Cc1ccc(C(=O)c2cn(CCCCCCl)c3ccccc23)c2ccccc12 [MAM2201 N-(5-chloropentyl) analog] = 120

Look at each compound and report its Emax.
1. CC(C)C(NC(=O)c1nn(Cc2cccc(F)c2)c2ccccc12)C(N)=O (stereo not drawn) [meta-AB-FUBINACA]
2. CCCCCn1cc(C(=O)c2cccc3ccccc23)cc1-c1ccccc1 [JWH 145]

result:
86
86

====

Molecular target: hCB2R (Homo sapiens, UniProt P34972)
Construct: host or cells: CHO-K1 (PathHunter)
Assay: [^3H]CP55,940 competition (radioligand displacement) binding to CB2R
Details: bottom of the concentration–response curve; mean ± SEM
Kindly state CB2R [^3H]CP55,940 Emin for each of the entries shown.
Numbers only, in %.

Look at each molecule and report its CB2R [^3H]CP55,940 Emin.
1. COC(=O)[C@@H](NC(=O)c1nn(CCCCF)c2ccccc12)C(C)(C)C
2. CC(C)C(NC(=O)c1nn(Cc2cccc(F)c2)c2ccccc12)C(N)=O (stereo not shown)
3. CCCCCn1c2ccccc2c2cc(C(=O)c3cccc4ccccc34)ccc21
4. CCCCCCC(C)(C)c1ccc([C@@H]2C[C@H](O)CC[C@H]2CCCO)c(O)c1 [CP55,940, reference compound]

result:
[57, 89, 53, 0.0]

====

Molecular target: hCB1R (Homo sapiens, UniProt P21554)
Construct: expressed in transfected cells; host or cells: CHO-K1
Assay: cell-based
Assay type: cell-based
Conditions: CHO hCB1R; 10 µM FSK; 90 min; value with 95% CI; read-out: CB1R cAMP Inhibition EC50
Kindly state EC50 for each of the entries shown.

These recorded examples may help you get a feel for the data.
CC(C)C(NC(=O)c1nn(Cc2cccc(F)c2)c2ccccc12)C(N)=O (centres unmarked) = 5.7 nM
N#CCCCCn1cc(C(=O)c2cccc3ccccc23)c2ccccc21 = 190 nM
COC(=O)[C@H](Cc1ccccc1)NC(=O)c1cn(CCCCCF)c2ccccc12 = 6.4 nM
CC(C)CCn1cc(C(=O)c2ccc3ccccc3c2)c2ccccc21 [JWH 018 2'-naphthyl-N-(3-methylbutyl) isomer] = 98 nM
Cc1ccc(C(=O)c2cn(CCCCCCl)c3ccccc23)c2ccccc12 = 2.8 nM
O=C(Nc1cccc2ccccc12)c1cn(Cc2ccc(F)cc2)c2ccccc12 = 1 nM

Look at each compound and report its EC50.
1. COC(=O)[C@@H](NC(=O)c1nn(CCCCF)c2ccccc12)C(C)(C)C
2. O=C(c1ccc(Cl)c2ccccc12)c1cn(CCCCCF)c2ccccc12
3. CCC(Cl)CCn1nc(C(=O)NC(C(N)=O)C(C)C)c2ccccc21 (centres unmarked)
4. CC(C)C(NC(=O)c1nn(Cc2ccccc2F)c2ccccc12)C(N)=O (centres unmarked)

result:
10 nM
2.6 nM
0.04 nM
3.6 nM

Look at each compound and report its EC50.
1. CCCCCn1cc(C(=O)c2cccc3ccccc23)cc1-c1ccccc1
2. O=C(Oc1cccc2cccnc12)c1nn(CCCCCF)c2ccccc12

result:
1. 0.03 nM
2. 53 nM

Look at each compound and report its EC50.
1. CCCCCn1cc(C(=O)c2ccc(CCC)c3ccccc23)c2ccccc21
2. CCCC(F)Cn1nc(C(=O)NC(C(N)=O)C(C)C)c2ccccc21 (stereo not drawn) [AB-PINACA N-(2-fluoropentyl) isomer]

result:
1: 24 nM; 2: 7.3 nM

====

Biological target: hCB1R (Homo sapiens)
Construct: expressed in transfected cells; host or cells: CHO-K1
Assay: cell-based
Assay type: cell-based
Details: read-out: CB1R cAMP Inhibition Emax
Kindly state Emax for each of the entries shown.
Numbers only, in %.

These recorded examples may help you get a feel for the data.
CCCC(F)Cn1nc(C(=O)NC(C(N)=O)C(C)C)c2ccccc21 (stereo not drawn) [AB-PINACA N-(2-fluoropentyl) isomer] = 75
N#CCCCCn1cc(C(=O)c2cccc3ccccc23)c2ccccc21 [AM 2232] = 100
CCC(Cl)CCn1nc(C(=O)NC(C(N)=O)C(C)C)c2ccccc21 (stereo not drawn) [3-chloro AB-PINACA] = 94
CCCCCn1cc(C(=O)c2ccc(CCC)c3ccccc23)c2ccccc21 [JWH 182] = 78
CC(C)C(NC(=O)c1nn(Cc2ccccc2F)c2ccccc12)C(N)=O (stereo not drawn) [ortho-AB-FUBINACA] = 83
Cc1ccc(C(=O)c2cn(CCCCCCl)c3ccccc23)c2ccccc12 [MAM2201 N-(5-chloropentyl) analog] = 98
COC(=O)[C@H](Cc1ccccc1)NC(=O)c1cn(CCCCCF)c2ccccc12 [5-fluoro MPP-PICA] = 92
O=C(c1ccc(Cl)c2ccccc12)c1cn(CCCCCF)c2ccccc12 [Cl 2201] = 89
CCCCCn1cc(C(=O)c2cccc3ccccc23)cc1-c1ccccc1 [JWH 145] = 82
CCCCCn1c2ccccc2c2cc(C(=O)c3cccc4ccccc34)ccc21 [EG 018] = 104

Look at each compound and report its Emax.
1. O=C(Nc1cccc2ccccc12)c1cn(Cc2ccc(F)cc2)c2ccccc12 [FDU-NNEI]
2. CC(C)CCn1cc(C(=O)c2ccc3ccccc3c2)c2ccccc21 [JWH 018 2'-naphthyl-N-(3-methylbutyl) isomer]
3. COC(=O)[C@@H](NC(=O)c1nn(CCCCF)c2ccccc12)C(C)(C)C [4-fluoro MDMB-BINACA]
4. CC(C)C(NC(=O)c1nn(Cc2cccc(F)c2)c2ccccc12)C(N)=O (stereo not drawn) [meta-AB-FUBINACA]
5. O=C(Oc1cccc2cccnc12)c1nn(CCCCCF)c2ccccc12 [5-fluoro NPB-22]

result:
1. 96
2. 80
3. 87
4. 91
5. 96

====

Target: hCB2R (Homo sapiens)
Construct: host or cells: CHO-K1 (PathHunter)
Assay: HitHunter inhibition of FSK-stimulated cAMP, CB2R
Assay type: cell-based
Property Measured: Emax (%)
One number for each entry, in %.

CC(C)C(NC(=O)c1nn(Cc2ccccc2F)c2ccccc12)C(N)=O (stereo not shown) [ortho-AB-FUBINACA] = 110

Look at each compound and report its Emax.
1. O=C(Nc1cccc2ccccc12)c1cn(Cc2ccc(F)cc2)c2ccccc12 [FDU-NNEI]
2. CCCCCc1cc(O)c2c(c1)OC(C)(C)[C@@H]1CCC(C)=C[C@@H]21 [∆^9-THC, ∆^9-tetrahydrocannabinol, reference compound]
3. CCCCCn1cc(C(=O)c2ccc(CCC)c3ccccc23)c2ccccc21 [JWH 182]

result:
1. 103
2. 48
3. 120
